Target: mu opioid receptor (rat)
Test: Log(tau/KA) transduction coefficient (log10 (M-1)); higher = more effective agonism
Settings: receptor: rat MOR; cAMP
Measured Parameter: Log(tau/KA) transduction coefficient (log10)

# Compound, Data Value
measured = [
    ("CSCC[C@H](NC(=O)[C@H](Cc1ccccc1)NC(=O)CNC(=O)CNC(=O)[C@@H](N)Cc1ccc(O)cc1)C(=O)O [Met-Enk]", 8.44),
    ("CN(C)C(=O)C(CCN1CCC(O)(c2ccc(Cl)cc2)CC1)(c1ccccc1)c1ccccc1 [Loperamide]", 7.69),
    ("COc1ccc2c3c1O[C@H]1C(=O)CC[C@@]4(O)[C@@H](C2)N(C)CC[C@]314 [Oxycodone]", 7.45),
    ("C[C@@H](NC(=O)[C@@H](N)Cc1ccc(O)cc1)C(=O)NCC(=O)N(C)[C@@H](Cc1ccccc1)C(=O)NCCO [DAMGO]", 8.44),
]

* * *

Measured Log(tau/KA) transduction coefficient (log10) by item
Target: mu opioid receptor (rat) (UniProt P33535)
Sequence (P33535 whole entry): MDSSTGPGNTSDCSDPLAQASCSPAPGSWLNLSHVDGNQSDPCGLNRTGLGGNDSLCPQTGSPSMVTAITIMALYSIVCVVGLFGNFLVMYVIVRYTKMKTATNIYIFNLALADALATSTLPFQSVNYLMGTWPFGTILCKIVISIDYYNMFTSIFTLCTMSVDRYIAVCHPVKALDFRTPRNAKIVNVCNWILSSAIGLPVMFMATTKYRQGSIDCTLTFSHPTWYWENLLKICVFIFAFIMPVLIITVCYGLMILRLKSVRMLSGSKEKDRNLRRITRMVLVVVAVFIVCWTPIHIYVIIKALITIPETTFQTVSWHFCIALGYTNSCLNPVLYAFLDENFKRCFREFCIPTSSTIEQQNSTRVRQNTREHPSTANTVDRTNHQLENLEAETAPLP
Assay: Log(tau/KA) transduction coefficient (log10 (M-1)); higher = more effective agonism
Conditions: receptor: rat MOR; βarrestine 2-GRK2
Measured Parameter: Log(tau/KA) transduction coefficient (log10)

# Compound, Data Value
data = [
    ("CN1CC[C@]23c4c5ccc(O)c4O[C@H]2[C@@H](O)C=C[C@H]3[C@H]1C5 [Morphine]", 6.29),
    ("CN(C)C(=O)C(CCN1CCC(O)(c2ccc(Cl)cc2)CC1)(c1ccccc1)c1ccccc1 [Loperamide]", 6.37),
    ("C[C@@H](NC(=O)[C@@H](N)Cc1ccc(O)cc1)C(=O)NCC(=O)N(C)[C@@H](Cc1ccccc1)C(=O)NCCO [DAMGO]", 6.21),
    ("COc1ccc2c3c1O[C@H]1C(=O)CC[C@@]4(O)[C@@H](C2)N(C)CC[C@]314 [Oxycodone]", 4.81),
    ("CSCC[C@H](NC(=O)[C@H](Cc1ccccc1)NC(=O)CNC(=O)CNC(=O)[C@@H](N)Cc1ccc(O)cc1)C(=O)O [Met-Enk]", 6.24),
    ("CO[C@@]12CC[C@@]3(C[C@@H]1[C@](C)(O)C(C)(C)C)[C@H]1Cc4ccc(O)c5c4[C@@]3(CCN1CC1CC1)[C@H]2O5 [Buprenorphine]", 5.79),
]

* * *

Measured Log(tau/KA) transduction coefficient (log10) by item
Biological target: mu opioid receptor (rat) (UniProt P33535)
Assay: Log(tau/KA) transduction coefficient (log10 (M-1)); higher = more effective agonism
Settings: receptor: rat MOR; Gαi1
Measured Parameter: Log(tau/KA) transduction coefficient (log10)

# Molecule, Target Under Test, Data Value
rows = [
    ("CO[C@@]12CC[C@@]3(C[C@@H]1[C@](C)(O)C(C)(C)C)[C@H]1Cc4ccc(O)c5c4[C@@]3(CCN1CC1CC1)[C@H]2O5", "mu opioid receptor (rat) (UniProt P33535)", 6.88),
    ("CCC1(c2cccc(O)c2)CCCCN(C)C1 (stereo not drawn)", "mu opioid receptor (rat) (UniProt P33535)", 5.15),
    ("CN1CC[C@]23c4c5ccc(O)c4O[C@H]2[C@@H](O)C=C[C@H]3[C@H]1C5", "mu opioid receptor (rat) (UniProt P33535)", 6.9),
    ("C[C@@H](NC(=O)[C@@H](N)Cc1ccc(O)cc1)C(=O)NCC(=O)N(C)[C@@H](Cc1ccccc1)C(=O)NCCO", "mu opioid receptor (rat) (UniProt P33535)", 6.18),
    ("COc1cccc(C2(O)CCCCC2CN(C)C)c1 (stereo not drawn)", "mu opioid receptor (rat) (UniProt P33535)", 2.98),
    ("COc1ccc2c3c1O[C@H]1C(=O)CC[C@@]4(O)[C@@H](C2)N(C)CC[C@]314", "mu opioid receptor (rat) (UniProt P33535)", 5.49),
    ("CN(C)C(=O)C(CCN1CCC(O)(c2ccc(Cl)cc2)CC1)(c1ccccc1)c1ccccc1 [Loperamide]", "mu opioid receptor (rat) (UniProt P33535)", 7.2),
    ("CSCC[C@H](NC(=O)[C@H](Cc1ccccc1)NC(=O)CNC(=O)CNC(=O)[C@@H](N)Cc1ccc(O)cc1)C(=O)O", "mu opioid receptor (rat) (UniProt P33535)", 7.24),
]

Measured values drawn from the supplement of paper PMC6733853 for this set.
